experiment: Cytotoxicity activity against human L02 cells assessed as cell growth inhibition incubated for 48 hrs by CCK-8 assay; format: toxicity, cell-based
quantityKind: IC50 at 48 h

Given item `COC(=O)c1cc([C@H]2N[C@H](C(=O)N[C@@H](CC(N)=O)C(=O)O)Cc3c2[nH]c2ccccc32)ccc1O` , the value recorded as its IC50 at 48 h is > 125 µM

###

assay: Cytotoxicity activity against human NHDF cells assessed as cell growth inhibition incubated for 48 hrs by CCK-8 assay; format: toxicity, cell-based
quantityKind: IC50 at 48 h

Given item `COC(=O)c1cc([C@H]2N[C@H](C(=O)N[C@@H](CC(N)=O)C(=O)O)Cc3c2[nH]c2ccccc32)ccc1O` , the value recorded as its IC50 at 48 h is > 125 µM

###

assay: Cytotoxicity activity against human NCM460 cells assessed as cell growth inhibition incubated for 48 hrs by CCK-8 assay; type: toxicity, cell-based
quantityKind: IC50 at 48 h

Given item `COC(=O)c1cc([C@H]2N[C@H](C(=O)N[C@@H](CC(N)=O)C(=O)O)Cc3c2[nH]c2ccccc32)ccc1O` , the value recorded as its IC50 at 48 h is > 125 µM
